Origin of the recorded values: PubChem BioAssay (NCI)

# Test system: DU-145 prostate
# PROCEDURE SUMMARY: NCI tumour cell line growth inhibition, 48 h
QUANTITY MEASURED: TGI

Param item = C[C@H](CCc1nc(C#N)c(N)o1)[C@H]1CC[C@H]2[C@@H]3[C@@H](O)CC4C[C@@H](O)CC[C@]4(C)[C@H]3C[C@@H](O)[C@]12C (stereo not given in full) ; retrieve measured TGI.
> 76.3 µM

Value lookup for TGI; key = COc1ccc(OC)c(C2CCc3cnc4nc(N)nc(N)c4c3C2)c1 (stereo not given)
> 100 µM

For Nc1ccc(-c2ccc(-c3nc4ccccc4[nH]3)cc2)cc1 , what is its reported TGI?
> 100 µM

Item under review: COC(=O)c1ccccc1CC1Cc2cc3c(cc2C1)CCC3 . Reported TGI?
> 100 µM

Item Cc1sc(N=Nc2c(O)[nH]c3ccccc23)nc1-c1ccccc1 has what recorded TGI?
24.8 µM
